# Species on record: Homo sapiens
# ASSAY SUMMARY: Binding affinity to RBC membrane receptor in 1 mg/mL trypsin pretreated human RBC relative to untreated RBC
OBSERVED PROPERTY: Activity (%)

# annotated cases, reported Activity shown
>>> recorded_value("H-LFDYTHLWDNAQFTRTKENI-OH")
24.9
>>> recorded_value("H-YDKLNEHVINNLYTKSKDSL-OH")
16.7
>>> recorded_value("H-NILMDEIENYVKKYTESNRI-OH")
220

P: H-LNTILHRNEQTKNATRSYNM-OH
Q: H-CIQIKKKVDELYNIYDQLFK-OH
Between the entries labeled P and Q , whose measured Activity is lower? Your choice should be expressed through its label.
P

1: H-QEKNTLAQFLYNADIKKYID-OH
2: H-NTTETQLNHIKQNINHFKYF-OH
Of 1 and 2 , which one carries the higher reported Activity? Indicate which entry you chose by stating its label.
2
(2: 55.5%, 1: 1.01%)

P: H-LNFTHKTIQQILQQQYKNNT-OH
Q: H-MLSIFQDTKYGKHKNQQILS-OH
Of the two listed items, which has the higher Activity? First: P Second: Q Please identify the chosen entry by its label.
Q

a: H-QEQNRIYNELQNKIKQIKNV-OH
b: H-KIMQNIQQTTNRLKINIKKIY-OH
c: H-YNKNNIKDIYQQFKNIQQQL-OH
d: H-QIYKNELKDRIKETQTKINL-OH
// sort entries: Activity, high to low Response field: labels, in requested order.
c, a, b, d
(c: 87%, a: 32%, b: 15.2%, d: 0.03%)

====

# ASSAY SUMMARY: Binding affinity to RBC membrane receptor in human RBC assessed as dissociation constant by gamma counter
pKd: −log10 of the molar value.
OBSERVED PROPERTY: pKd

Check out these entries, answers already filled in.
>>> recorded_value("H-LNFTHKTIQQILQQQYKNNT-OH")
6.07
>>> recorded_value("H-KIMQNIQQTTNRLKINIKKIY-OH")
6.12
>>> recorded_value("H-LNTILHRNEQTKNATRSYNM-OH")
6.07
>>> recorded_value("H-QEQNRIYNELQNKIKQIKNV-OH")
6.06

I: H-QIYKNELKDRIKETQTKINL-OH
II: H-LFDYTHLWDNAQFTRTKENI-OH
Just tell me: smaller pKd value, I or II ? Answer by stating the label of the chosen item.
II
(II: 5.92, I: 6.23)

====

Entries and their Activity
# Species: Homo sapiens
# ASSAY SUMMARY: Binding affinity to RBC membrane receptor in human RBC assessed as specific binding activity measured as ratio of specifically bound peptide/added peptide by gamma counter

>>> recorded_value("H-TCHSIQTLLNNLISSKIIFKY-OH")
"< 2%"
>>> recorded_value("H-HKINNYSHNIEDLINQLQHK-OH")
"< 2%"
>>> recorded_value("H-CIKQTYNNNKSIESLKLKIN-OH")
"< 2%"
>>> recorded_value("H-YDKLNEHVINNLYTKSKDSL-OH")
"> 2%"

Item "H-INNLMIISFDKNKSSDLMLQY-OH" has what recorded Activity?
< 2%

Param item = "H-QIYKNELKDRIKETQTKINL-OH" ; retrieve measured Activity.
> 2%

====

# Organism: Homo sapiens
# ASSAY SUMMARY: Binding affinity to RBC membrane receptor in 1 mg/mL chymotrypsin pretreated human RBC relative to untreated RBC
OBSERVED PROPERTY: Activity (%)

A selection of reference data follows.
>>> recorded_value("H-YDKLNEHVINNLYTKSKDSL-OH")
26.3
>>> recorded_value("H-MLSIFQDTKYGKHKNQQILS-OH")
93.2
>>> recorded_value("H-LNFTHKTIQQILQQQYKNNT-OH")
79.7
>>> recorded_value("H-QIYKNELKDRIKETQTKINL-OH")
288
>>> recorded_value("H-YNKNNIKDIYQQFKNIQQQL-OH")
114
>>> recorded_value("H-KHIVNKIQENFKLNQNKYIH-OH")
132
>>> recorded_value("H-NTTETQLNHIKQNINHFKYF-OH")
135
>>> recorded_value("H-LFDYTHLWDNAQFTRTKENI-OH")
31.4
>>> recorded_value("H-CIQIKKKVDELYNIYDQLFK-OH")
53.3

A: H-LNTILHRNEQTKNATRSYNM-OH
B: H-NILMDEIENYVKKYTESNRI-OH
C: H-KIMQNIQQTTNRLKINIKKIY-OH
D: H-QEKNTLAQFLYNADIKKYID-OH
E: H-QEQNRIYNELQNKIKQIKNV-OH
Order these by Activity, descending, and give the full ranking. When ranking, write the labels in the order the request describes.
B, E, C, A, D
(B: 169%, E: 102%, C: 60.1%, A: 22.5%, D: 0.01%)

====

Readings of Activity for the listed substances
# Species on record: Homo sapiens
# ASSAY SUMMARY: Binding affinity to RBC membrane receptor in human RBC assessed as specific binding activity measured as ratio of specifically bound peptide/added peptide by gamma counter

Example cases with answers are listed next.
>>> recorded_value("H-NHVELYIKNFQKNKIQIHKN-OH")
"< 2%"
>>> recorded_value("H-EDEDENENEVENENEDFNDIY-OH")
"< 2%"
>>> recorded_value("H-NGQKLKTDIILNSFVQINSSY-OH")
"< 2%"
>>> recorded_value("H-ITLLVSRKQLIYIEYIYFIN-OH")
"< 2%"

Let us move to another entry and its Activity.
Give the measured Activity of "H-IQHYQTKFNINTNTKQLQQL-OH" .
< 2%

====

# Organism: Homo sapiens
# ASSAY SUMMARY: Binding affinity to RBC membrane receptor in human RBC assessed as specific binding activity measured as ratio of specifically bound peptide/added peptide by gamma counter
OBSERVED PROPERTY: Activity

Some substances with known Activity results, for comparison:
>>> recorded_value("H-IRKIYDIETIYQNDLHNIEE-OH")
"< 2%"
>>> recorded_value("H-QFYINEKNYNNNHDDHNDDH-OH")
"< 2%"
>>> recorded_value("H-EKIGLRQMENRLKGKYEEIK-OH")
"< 2%"
>>> recorded_value("H-NILMDEIENYVKKYTESNRI-OH")
"> 2%"
>>> recorded_value("H-FMQNETFKKNIDDKIKEMNNY-OH")
"< 2%"
>>> recorded_value("H-LNIKDKDEKKRKNDNLINNY-OH")
"< 2%"

# ---- query substance ----
What value of Activity has been recorded for this entry: "H-MLETTKEQILLLWNNKKISQY-OH"
> 2%

====

# Organism: Homo sapiens
# ASSAY SUMMARY: Binding affinity to RBC membrane receptor in human RBC assessed as specific binding activity measured as ratio of specifically bound peptide/added peptide by gamma counter
Each entry below lists one item and its recorded Activity value.

>>> recorded_value("H-KIMQNIQQTTNRLKINIKKIY-OH")
"> 2%"

What value of Activity has been reported for the following substance? "H-KHIVNKIQENFKLNQNKYIH-OH"
> 2%

Look up Activity: "H-HIKQILINYIQECKPIQNIS-OH"
< 2%

Which Activity value belongs to "H-LQLLKDIKEIQTKQIDTKINY-OH" ?
< 2%

Need Activity of "H-FKQILELKEKEHYITNKHTY-OH" , thanks.
> 2%

What value of Activity has been reported for the following substance? "H-PPNSPFRSYYDKNLNKDINE-OH"
< 2%

Requested read-out: Activity. Entry: "H-CIQIKKKVDELYNIYDQLFK-OH"
> 2%

====

# Organism: Homo sapiens
# ASSAY SUMMARY: Binding affinity to RBC membrane receptor in 150 uU/mL neuraminidase pretreated human RBC relative to untreated RBC
OBSERVED PROPERTY: Activity (%)

>>> recorded_value("H-MLSIFQDTKYGKHKNQQILS-OH")
200

A: H-YDKLNEHVINNLYTKSKDSL-OH
B: H-LNTILHRNEQTKNATRSYNM-OH
C: H-YNKNNIKDIYQQFKNIQQQL-OH
In this exercise, place the 3 substances in ascending sequence of their recorded Activity. When ranking, write the labels in the order the request describes.
B, C, A

====

# ASSAY SUMMARY: Binding affinity to RBC membrane receptor in human RBC assessed as dissociation constant by gamma counter
OBSERVED PROPERTY: Kd (µM)

>>> recorded_value("H-YDKLNEHVINNLYTKSKDSL-OH")
0.48
>>> recorded_value("H-KHIVNKIQENFKLNQNKYIH-OH")
0.59
>>> recorded_value("H-YNKNNIKDIYQQFKNIQQQL-OH")
0.4

====

Let's look at some substances and their measured Activity.
# Species on record: Homo sapiens
# ASSAY SUMMARY: Binding affinity to RBC membrane receptor in human RBC assessed as specific binding activity measured as ratio of specifically bound peptide/added peptide by gamma counter

Consider the following illustrative entries.
>>> recorded_value("H-NNLKDNIQININNIKSIIRNY-OH")
"< 2%"
>>> recorded_value("H-IFQKEFSEADNAHSEEKEEY-OH")
"< 2%"
>>> recorded_value("H-LPEHIKQKSVSELNIYMKQI-OH")
"> 2%"
>>> recorded_value("H-YTTFKYLQTLNKSLYDSIYK-OH")
"< 2%"
>>> recorded_value("H-IIKNITSIYYKINILNILII-OH")
"< 2%"
>>> recorded_value("H-QEFNKKIQHFKEETQIMIWKY-OH")
"< 2%"
>>> recorded_value("H-YNNNHDKQNEHKYNQGKSSG-OH")
"< 2%"
>>> recorded_value("H-LPVYFDEVEDEVEDEVEDED-OH")
"< 2%"

Could you tell me which Activity is on file for "H-NISQNYNNHSLSFVHSINNH-OH" ?
< 2%

Param item = "H-TFNMYYNDIQQIKIKINQNE-OH" ; retrieve measured Activity.
< 2%

Suppose we examine the substance "H-MLSIFQDTKYGKHKNQQILS-OH" ; what Activity value has been reported?
> 2%

State the recorded Activity for this entry: "H-EHTIYTLYQEIKTNLENIEQ-OH"
> 2%

Suppose we examine the substance "H-DYSLLKLSYNKNQDIYKNIQ-OH" ; what Activity value has been reported?
< 2%
